Where do these numbers come from? They come from the EternaBench riboswitch data.

# Tested on: MS2 coat protein
# protocolText: apparent Kd, MS2 coat protein; higher = weaker binding; RNA-MaP array; FMN 200 µM where present
# setupConditions: ligand present: flavin mononucleotide; designed as: OFF switch for flavin mononucleotide
readoutKind: apparent Kd

Examples with answers:
>  <orderedResidues>
CUGAUGUGAGGAUAUCGGGCUACAGGCCUGCUGCUAGCAAACGAGAAGGCACAUGAGGAUCACCCAUGUGAUAG

>  <apparent Kd>
35.1 nM

$$$$
>  <orderedResidues>
GGUGUGUCAGGAUAUCAACACACGGCAGCAGCGUUAUGCGUUGAGAAGGGACAUGAGGAUCACCCAUGUGACGG

>  <apparent Kd>
70.9 nM

$$$$
>  <orderedResidues>
GUAAAUCAUGUAGGAUAUGCAUGGCGAAGCUACGCAGAAGGACAUGAGGAUCACCCAUGUUAUAGCUACCCGUUACGGUGGCAA

>  <apparent Kd>
236 nM

$$$$

Q: Using the record for "AAUUCGCGAGGAUAUACAUGAGGAUCACCCAUGUGUGUACGCAUGCACUUCAUAGGUUGUAGAAGGCGUGAGAU" , report its apparent Kd.
Result: 29.4 nM

Q: For "CAUACACAUGAGGAUCACCCAUGUGAGGAUAUGCGUACGUUGUCCGUAGGCGACGUGCGCAGAAGGCGCUUGGU" , what is its reported apparent Kd?
Result: 68.6 nM

Q: Which apparent Kd value is on record for "AAGUAGGUAGGAUAUACAUGGAUAUACAUUCAUGUGGACCUACAUGAGGAUCACCCAUGUAGAAGGACCUAAUA" ?
Result: 41.6 nM

Q: Param item = "UUUAUGUAAGGAUAUGCGGGCGGGCGUGAAAAUGUUUGUUUGUAGAAGGUACAUGAGGAUCACCCAUGUAGUGG" ; retrieve measured apparent Kd.
Result: 201 nM

Q: Give the measured apparent Kd of "GUGCAAUGAGGAUAUACGUUGGUGAACAUCUGUGUGCUCCUACAUGAGGAUCACCCAUGUAGAAGGCAUGUCAC" .
Result: 17.1 nM

Q: Record request: apparent Kd value, item "CUUUAGCUAGGAUAUACAUGAGGAUCACCCAUGUUAGCGGUCAAUUGGGCCGCGGGUUGUAGAAGGAGCAUUAA"
Result: 53.4 nM

Q: Could you tell me which apparent Kd is on file for "UGUCGGAGCAGAGGAUAUUACAUGAGGAUCACCCAUGUAUAAAAUGGAAGCUGGAAACAGCAAUGUAAGAAGGCUGCUCCGACA" ?
Result: 288 nM

Q: Would you mind telling me what apparent Kd value was observed for "UUACUAUCACAGAAGGGUAGAUAGUAUAUAGAUGCAGGAUAUGUGACAUGAGGAUCACCCAUGUUUCACCGACAUGAGGAUCAC" ?
Result: 66.2 nM

Q: Entry "GGGUGACAUGAGGAUCACCCAUGUCAGGAUAUGGGCCCGGGUUUGAAAGGGCCCGGGCCCAGAAGGGACUGCCC" : reported apparent Kd = ?
Result: 127 nM

Q: Any idea what apparent Kd was measured for "GUUCUCGGAGGAUAUACACAGUGAGAACCCGCGCAAGCGGGACAUGAGGAUCACCCAUGUAGAAGGUCGAGCAA" ?
Result: 170 nM
